target.of.assay: His6-ERα298-554 D538G mutant (ERα ligand-binding domain) (Homo sapiens (Human), UniProt P03372, D538G)
Sequence (P03372 298-554 D538G): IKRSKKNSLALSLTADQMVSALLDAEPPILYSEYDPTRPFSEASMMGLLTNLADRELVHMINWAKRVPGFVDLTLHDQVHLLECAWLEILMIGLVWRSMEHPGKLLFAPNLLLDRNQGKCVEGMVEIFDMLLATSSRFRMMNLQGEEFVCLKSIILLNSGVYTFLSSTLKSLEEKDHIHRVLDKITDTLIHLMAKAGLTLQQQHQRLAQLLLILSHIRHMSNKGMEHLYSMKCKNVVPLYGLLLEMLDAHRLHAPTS
assay.summary: Test A: biochemical antagonist activity, LanthaScreen TR-FRET ERα coactivator assay, D538G mutant
experimental.context: protocol with 3 nM estradiol; read-out: Antagonism D538G IC50
Flag rule - IC50 less than 100 nM flags true; the remaining entries get false.

# smiles.representation, group
records = [
    ("Oc1cc2c(cc1Cl)C(c1ccc(O[C@H]3CCN(CCCF)C3)cc1)=C(c1ccc3c(c1)CCN3)CCO2", "false"),
    ("Oc1ccc2c(c1)OCCC(c1ccc(F)cc1Cl)=C2c1ccc(O[C@H]2CCN(CCCF)C2)cc1", "true"),
    ("Oc1ccc2c(c1Cl)OCCC(c1cccc3c1CCN3)=C2c1ccc(O[C@H]2CCN(CCCF)C2)cc1", "false"),
    ("Oc1ccc2c(c1)OCCC(c1ccc3c(c1)NCC3)=C2c1ccc(O[C@H]2CCN(CCCF)C2)cc1", "false"),
    ("Cc1ccc(C2=C(c3ccc(O[C@H]4CCN(CCCF)C4)cc3)c3cc(O)ccc3SCC2)c(F)c1", "false"),
    ("O=S1(=O)CCC(c2ccc(Cl)cc2F)=C(c2ccc(O[C@H]3CCN(CCCF)C3)cc2)c2ccc(O)cc21", "false"),
    ("Cc1c(Cl)cccc1C1=C(c2ccc(O[C@H]3CCN(CCCF)C3)cc2)c2ccc(O)c(F)c2OCC1", "true"),
]

###

The entries below are paired with their reported DC50.
target.of.assay: ERα in MCF7 cells (Homo sapiens (Human))
assay.summary: Test C: estrogen receptor degradation activity, ERα in cell western assay in MCF7 cells
Assay type: cell-based
experimental.context: 4 hours post compound addition, ERα in cell western, read-out: Degradation IC50
assay.metric: DC50 (nM)

# smiles.representation, target.of.assay, unit.abbreviation, test.value
rows = [
    ("Oc1ccc2c(c1)SCCC(c1ccc3[nH]ccc3c1)=C2c1ccc(O[C@H]2CCN(CCCF)C2)cc1", "ERα in MCF7 cells (Homo sapiens (Human))", "nM", 0.2),
    ("COc1ccc(C2=C(c3ccc(O[C@H]4CCN(CCCF)C4)cc3)c3ccc(O)cc3OCC2)c(F)c1", "ERα in MCF7 cells (Homo sapiens (Human))", "nM", 0.2),
    ("CC1(C)Cc2cc(C3=C(c4ccc(O[C@H]5CCN(CCCF)C5)cc4)c4ccc(O)cc4SCC3)ccc2O1", "ERα in MCF7 cells (Homo sapiens (Human))", "nM", 0.8),
    ("CCN(CC)c1ccc(C2=C(c3ccc(O[C@H]4CCN(CCCF)C4)cc3)c3ccc(O)cc3SCC2)c(F)c1", "ERα in MCF7 cells (Homo sapiens (Human))", "nM", 3),
    ("Oc1ccc2c(c1)OCC(c1ccc(F)cc1Cl)=C2c1ccc(O[C@H]2CCN(CCCF)C2)cc1", "ERα in MCF7 cells (Homo sapiens (Human))", "nM", 7),
    ("CCOc1nccc(C2=C(c3ccc(O[C@H]4CCN(CCCF)C4)cc3)c3ccc(O)cc3SC2)c1F", "ERα in MCF7 cells (Homo sapiens (Human))", "nM", 0.2),
    ("Cc1cc(C2=C(c3ccc(O[C@H]4CCN(CCCF)C4)cc3)c3ccc(O)cc3SCC2)ccc1Cl", "ERα in MCF7 cells (Homo sapiens (Human))", "nM", 0.8),
]

###

Measured IC50, listed per entry.
target.of.assay: His6-ERα298-554 Y537S mutant (ERα ligand-binding domain) (Homo sapiens (Human), UniProt P03372, Y537S)
Sequence (P03372 298-554 Y537S): as the sequence (P03372 298-554 D538G) above, with Y240S, G241D counted along it
assay.summary: Test A: biochemical antagonist activity, LanthaScreen TR-FRET ERα coactivator assay, Y537S mutant
experimental.context: protocol with 3 nM estradiol; read-out: Antagonism Y537S IC50
assay.metric: IC50 (µM)

# smiles.representation, assay.metric, test.value
measured = [
    ("Cc1ccc(C2=C(c3ccc(O[C@H]4CCN(CCCF)C4)cc3)c3ccc(O)cc3SCC2)c(F)c1", "IC50", 0.009),
    ("Oc1ccc2c(c1)OCCC(c1ccc(Cl)c(F)c1)=C2c1ccc(O[C@H]2CCN(CCCF)C2)cc1", "IC50", 0.018),
    ("Cc1c(F)cccc1C1=C(c2ccc(O[C@H]3CCN(CCCF)C3)cc2)c2ccc(O)cc2OCC1", "IC50", 0.055),
    ("Oc1ccc2c(c1F)OCCC(c1cccc3[nH]ccc13)=C2c1ccc(O[C@H]2CCN(CCCF)C2)cc1", "IC50", 0.039),
]

###

target.of.assay: ERα in MCF7 cells (Homo sapiens (Human), UniProt P03372)
Sequence (P03372 whole entry): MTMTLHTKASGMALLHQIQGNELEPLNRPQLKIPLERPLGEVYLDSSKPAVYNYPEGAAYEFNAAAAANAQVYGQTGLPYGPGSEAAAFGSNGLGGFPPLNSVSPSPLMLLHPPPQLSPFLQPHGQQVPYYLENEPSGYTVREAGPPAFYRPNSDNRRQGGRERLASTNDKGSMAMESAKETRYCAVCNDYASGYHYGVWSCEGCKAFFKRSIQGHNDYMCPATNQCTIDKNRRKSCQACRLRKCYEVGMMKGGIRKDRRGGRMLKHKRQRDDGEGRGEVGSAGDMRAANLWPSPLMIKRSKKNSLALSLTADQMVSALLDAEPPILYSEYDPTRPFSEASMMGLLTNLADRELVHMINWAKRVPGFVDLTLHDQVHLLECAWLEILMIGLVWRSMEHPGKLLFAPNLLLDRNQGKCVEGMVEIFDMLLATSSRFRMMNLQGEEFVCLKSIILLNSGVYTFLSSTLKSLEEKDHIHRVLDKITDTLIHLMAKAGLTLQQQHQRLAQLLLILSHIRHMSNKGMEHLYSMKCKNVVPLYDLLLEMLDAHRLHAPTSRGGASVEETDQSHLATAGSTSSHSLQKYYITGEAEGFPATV
assay.summary: Test C: estrogen receptor degradation activity, ERα in cell western assay in MCF7 cells
Type: cell-based
experimental.context: 4 hours post compound addition, ERα in cell western, read-out: Degradation IC50
log10 DC50 values, listed per item
assay.metric: log10 DC50 (log10 of the value in nM)

# compound, log10 DC50
measured = [
    ("Oc1ccc2c(c1)SCC(c1ccc3[nH]ccc3c1)=C2c1ccc(O[C@H]2CCN(CCCF)C2)cc1 [Example 19]", 0.48),
    ("Oc1cc2c(cc1F)C(c1ccc(O[C@H]3CCN(CCCF)C3)cc1)=C(c1ccc3occc3c1)CCO2 [Example 156]", -0.40),
    ("Cc1c(Cl)cccc1C1=C(c2ccc(O[C@H]3CCN(CCCF)C3)cc2)c2ccc(O)cc2S(=O)(=O)CC1 [Example 235]", -0.05),
    ("O=S1(=O)CCC(c2ccc(F)cc2Cl)=C(c2ccc(O[C@H]3CCN(CCCF)C3)cc2)c2ccc(O)cc21 [Example 229]", -0.70),
    ("Oc1ccc2c(c1)OCCC(c1ccc(Cl)c(F)c1)=C2c1ccc(O[C@H]2CCN(CCCF)C2)cc1 [Example 97]", -0.70),
    ("CS(=O)(=O)c1ccc(C2=C(c3ccc(O[C@H]4CCN(CCCF)C4)cc3)c3ccc(O)cc3SCC2)cc1 [Example 194]", -0.70),
    ("Oc1ccc2c(c1)CCCC(c1ccc(OC(F)(F)F)cc1)=C2c1ccc(N[C@H]2CCN(CCCF)C2)cc1 [Example 87]", -0.40),
    ("Oc1ccc2c(c1)SCC(c1ccc(CF)cc1)=C2c1ccc(O[C@H]2CCN(CCCF)C2)cc1 [Example 61]", -0.70),
    ("Cc1c(Cl)cccc1C1=C(c2ccc(O[C@H]3CCN(CCCF)C3)cc2)c2ccc(O)cc2SCC1 [Example 163]", -0.22),
    ("COc1ccc(C2=C(c3ccc(O[C@H]4CCN(CCCF)C4)cc3)c3ccc(O)cc3SC2)c(F)n1 [Example 45]", -0.70),
    ("Cc1cccc(C2=C(c3ccc(O[C@H]4CCN(CCCF)C4)cc3)c3ccc(O)cc3OCC2)c1C [Example 122]", -0.52),
    ("CC1(C)Cc2cc(C3=C(c4ccc(O[C@H]5CCN(CCCF)C5)cc4)c4ccc(O)cc4SC3)ccc2O1 [Example 32]", -0.10),
    ("Oc1ccc2c(c1)SCCC(c1cnc3c(c1)CCN3)=C2c1ccc(O[C@H]2CCN(CCCF)C2)cc1 [Example 183]", 0.00),
    ("Oc1ccc2c(c1)SCCC(c1ccc(SC(F)(F)F)cc1)=C2c1ccc(O[C@H]2CCN(CCCF)C2)cc1 [Example 222]", 0.00),
    ("CC(C)(C)c1ccc(C2=C(c3ccc(O[C@H]4CCN(CCCF)C4)cc3)c3ccc(O)cc3SC2)c(F)n1 [Example 75]", 1.43),
    ("Oc1ccc2c(c1)OCCC(c1ccc(OC3CC3)cc1)=C2c1ccc(O[C@H]2CCN(CCCF)C2)cc1 [Example 149]", -0.05),
    ("Oc1ccc2c(c1)SCCC(c1ccc(OC(F)(F)F)cc1F)=C2c1ccc(O[C@H]2CCN(CCCF)C2)cc1 [Example 212]", 0.30),
    ("Oc1ccc(C2=C(c3ccc(O[C@H]4CCN(CCCF)C4)cc3)c3cc(O)ccc3SCC2)cc1 [Example 177]", -0.70),
    ("Oc1ccc2c(c1)SCCC(c1ccc(OC(F)F)c(F)c1)=C2c1ccc(O[C@H]2CCN(CCCF)C2)cc1 [Example 191]", -0.70),
    ("CCOc1ccc(C2=C(c3ccc(O[C@H]4CCN(CCCF)C4)cc3)c3ccc(O)cc3OCC2)c(Cl)c1 [Example 153]", -0.70),
    ("Cc1ccc(C2=C(c3ccc(O[C@H]4CCN(CCCF)C4)cc3)c3ccc(O)c(Cl)c3OCC2)c(F)c1 [Example 108]", 0.48),
    ("Oc1ccc2c(c1Cl)OCCC(c1ccc3c(c1)NCC3)=C2c1ccc(O[C@H]2CCN(CCCF)C2)cc1 [Example 125]", 0.60),
    ("CC1(C)CNc2ccc(C3=C(c4ccc(O[C@H]5CCN(CCCF)C5)cc4)c4ccc(O)cc4SC3)cc21 [Example 73]", 0.78),
    ("CCOc1ccc(C2=C(c3ccc(O[C@H]4CCN(CCCF)C4)nc3)c3ccc(O)cc3SCC2)c(F)n1 [Example 208]", -0.40),
    ("Oc1ccc2c(c1)SCCC(c1ccc(OC(F)(F)F)c(F)c1)=C2c1ccc(O[C@H]2CCN(CCCF)C2)cc1 [Example 190]", -0.30),
    ("Oc1ccc2c(c1)OCCC(c1ccc3c(c1)NCC3)=C2c1ccc(O[C@H]2CCN(CCCF)C2)cc1 [Example 116]", 0.30),
    ("CCOc1cc(F)c(C2=C(c3ccc(O[C@H]4CCN(CCCF)C4)cc3)c3ccc(O)cc3SCC2)cc1F [Example 220]", -0.70),
    ("CCOc1ccc(C2=C(c3ccc(N[C@H]4CCN(CCCF)C4)cc3)c3ccc(O)cc3CCC2)c(F)n1 [Example 86]", -0.30),
    ("O=S1(=O)CCC(c2ccc(Cl)cc2F)=C(c2ccc(O[C@H]3CCN(CCCF)C3)cc2)c2ccc(O)cc21 [Example 233]", -0.70),
]
